tested_target: T1, His-tagged CD47 recombinant protein, CD47-His (human, UniProt Q08722 19-141, limits assumed)
T1 construct: it is not restated for CD47-His; also called human CD47-His protein; antigen CD47-His; not shown: His tag
measurement_description: ELISA on coated CD47-His; Ab 0 nM (background)
Exercise: for every item that follows, state its recorded OD450 nm.

Solved entries:
INSERT INTO results (binder, parameter, data_value) VALUES
  ('51E2F11 (antibody, V domains shown, Murine hybridoma antibody purified on protein G) VH: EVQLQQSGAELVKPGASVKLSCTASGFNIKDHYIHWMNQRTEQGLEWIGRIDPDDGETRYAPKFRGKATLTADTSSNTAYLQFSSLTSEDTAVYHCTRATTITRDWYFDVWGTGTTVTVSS VL: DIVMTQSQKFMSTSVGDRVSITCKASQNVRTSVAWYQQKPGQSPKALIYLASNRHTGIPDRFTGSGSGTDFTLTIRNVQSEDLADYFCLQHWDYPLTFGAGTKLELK', 'OD450 nm', 0.05),
  ('132D1E5 (antibody, V domains shown, Murine hybridoma antibody purified on protein G) VH: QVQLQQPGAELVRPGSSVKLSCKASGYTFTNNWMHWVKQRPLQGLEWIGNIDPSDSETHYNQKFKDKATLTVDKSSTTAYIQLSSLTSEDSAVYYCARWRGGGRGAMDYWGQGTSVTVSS VL: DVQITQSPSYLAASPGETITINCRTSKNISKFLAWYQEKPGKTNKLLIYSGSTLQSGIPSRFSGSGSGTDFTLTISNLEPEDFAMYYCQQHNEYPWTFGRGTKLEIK', 'OD450 nm', 0.06);

Turning to the following binder.
Tell me the measured OD450 nm of 25E3B5 (antibody, V domains shown, Murine hybridoma antibody purified on protein G) VH: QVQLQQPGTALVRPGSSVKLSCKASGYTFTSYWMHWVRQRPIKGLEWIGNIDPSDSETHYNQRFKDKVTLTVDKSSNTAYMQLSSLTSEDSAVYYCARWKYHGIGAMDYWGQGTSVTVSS VL: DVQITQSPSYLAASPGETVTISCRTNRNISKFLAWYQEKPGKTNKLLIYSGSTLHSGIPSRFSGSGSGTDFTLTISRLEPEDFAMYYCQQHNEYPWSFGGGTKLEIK , please. 0.05

Just for reference, patent US20220017615A1 is where these values come from.
